Listed here are binders together with their documented OD492 nm.
# Experimental system: T1, HCV Core1-169 recombinant antigen (hepatitis C virus (HCV-1), UniProt P26664 1-169)
# T1 sequence: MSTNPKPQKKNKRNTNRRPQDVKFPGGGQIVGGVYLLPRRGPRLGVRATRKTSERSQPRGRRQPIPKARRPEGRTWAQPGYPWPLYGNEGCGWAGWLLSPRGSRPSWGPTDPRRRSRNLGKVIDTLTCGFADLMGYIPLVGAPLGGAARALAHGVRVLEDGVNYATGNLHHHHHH
# Procedure details: sandwich EIA, 25 ng/ml core1-169; capture mAb 208A-110
Measure: OD492 nm (OD492)

>>> measured_result("HCV 208A-557 monoclonal antibody (antibody, V domains shown) VH: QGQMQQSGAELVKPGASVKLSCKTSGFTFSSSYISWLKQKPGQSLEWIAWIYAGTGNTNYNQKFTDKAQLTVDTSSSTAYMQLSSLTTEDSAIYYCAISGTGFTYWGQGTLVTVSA VL: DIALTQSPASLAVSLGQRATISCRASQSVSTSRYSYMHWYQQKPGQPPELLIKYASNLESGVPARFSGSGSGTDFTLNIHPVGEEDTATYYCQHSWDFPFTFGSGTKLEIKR")
0.44
>>> measured_result("208B-612-226 monoclonal antibody (antibody, V domains shown) VH: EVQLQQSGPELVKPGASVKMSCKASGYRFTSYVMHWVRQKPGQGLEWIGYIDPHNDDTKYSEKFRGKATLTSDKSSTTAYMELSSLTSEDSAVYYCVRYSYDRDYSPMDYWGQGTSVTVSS VL: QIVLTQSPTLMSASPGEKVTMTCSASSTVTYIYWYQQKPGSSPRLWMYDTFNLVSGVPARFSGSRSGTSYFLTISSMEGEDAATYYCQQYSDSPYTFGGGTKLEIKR")
0.26
>>> measured_result("208A-207-271 monoclonal antibody (antibody, V domains shown) VH: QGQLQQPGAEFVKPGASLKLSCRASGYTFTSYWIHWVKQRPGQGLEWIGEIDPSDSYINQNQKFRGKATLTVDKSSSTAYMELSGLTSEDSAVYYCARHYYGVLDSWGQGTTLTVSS VL: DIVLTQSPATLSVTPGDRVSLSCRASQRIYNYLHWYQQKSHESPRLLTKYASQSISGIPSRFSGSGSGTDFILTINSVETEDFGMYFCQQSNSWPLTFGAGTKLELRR")
0.38
